Listed next: entries and their corresponding pIC50.
System: NCI-H841 complex tumor spheroid viability
Assay: Anticancer human tumor NCI-H841 cell line growth inhibition;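 further: spheroids exposed to compounds for 7 days before readout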
Conditions: curve of first compound; second compound 31.6 µM
Method: Multicellular complex tumor spheroid response to DNA repair inhibitors in combination with DNA-damaging drugs This study explores the anticancer activities of DNA-damaging drugs and inhibitors of DNA damage repair, both as single agents and in combinations. […] Twenty-six patient-derived or established malignant cell lines were evaluated representing sarcoma, melanoma, small cell lung cancer (SCLC), non-small cell lung cancer (NSCLC), as well as bladder, ovarian and pancreatic cancers. […]
Please report pIC50 as the negative decimal logarithm of the molar concentration, giving only the number.

Before answering, review these 2 worked examples.
Compound	Measured on	Result value
CC1COCCN1c1cc(-c2ccnn2C)c2ccnc(-c3ccn[nH]3)c2n1 (stereo not drawn) + Cn1nnc2c(C(N)=O)ncn2c1=O	NCI-H841 complex tumor spheroid viability	7.43
CNCc1ccc(-c2cc(-c3nc(-c4ccc(S(=O)(=O)C(C)C)cc4)cnc3N)on2)cc1 + Cn1nnc2c(C(N)=O)ncn2c1=O	NCI-H841 complex tumor spheroid viability	7.06

// next entry
Report value: pIC50, system: NCI-H841 complex tumor spheroid viability, compound: Cc1cc(C)c(CNC(=O)c2cc(-c3ccc(CN4CCOCC4)cc3)cc3c2cnn3C2CCCC2)c(=O)[nH]1 + Cn1nnc2c(C(N)=O)ncn2c1=O 5.01
